Tested on: OVCAR-5 ovarian
Experiment: NCI-60 one-dose screen, 48 h
Conditions: 10 µM
The panel holds about 83,000 compounds, 20% with a hit somewhere; the sample as a whole holds those more often. Calls of active or inactive are those of the source. How the source made its calls: active means growth percent below 10; inactive means the rest.
Pick one: true (1) for active, false (0) for inactive

Some solved entries appear below for comparison.
CN1CCN(Cc2ccc(NC(=O)c3cncc(C#Cc4cnc5ccc(N[C@@H]6CCOC6)nn45)c3)cc2C(F)(F)F)CC1 | true (1)
Cc1ccc(NC(=O)c2ccc(-n3c(=O)[nH]c4ccccc4c3=O)cc2)cc1 | false (0)
CC(=O)Nc1ccc(-c2cn(-c3cccc(C(=O)Nc4ccc(F)c(C(F)(F)F)c4)c3)nn2)cn1 | false (0)
CC1(c2ccccc2)NC(=O)N(CC(=O)Nc2ccc(C(=O)/C=C/c3ccc(Br)cc3)cc2)C1=O (stereo not drawn) | false (0)
Cc1cc(C)nc(SCC(=O)Nc2ccc(S(N)(=O)=O)cc2)n1 | false (0)
Cn1cc(/C=N/Nc2ccnc3cc(Cl)ccc23)c2ccccc21 | true (1)
O=c1oc2ccc(-c3ccc(F)cc3F)cc2c(=O)n1-c1ccc(F)c(Cl)c1 | true (1)
CCCS(=O)(=O)c1oc(-c2ccc(F)cc2)nc1S(=O)(=O)c1ccc(F)cc1 | true (1)

Query block: // return assay outcome for "COc1cc(NC(=O)CSc2nnc(-c3ccc4nc(-c5ccc(Cl)cc5)[nH]c4c3)o2)cc(OC)c1OC"
Result block: false (0)

Query block: Tell me the recorded outcome of this test for "Cc1ccc(C(=O)CSc2nnc(-c3c[nH]c4ccccc34)n2-c2ccccc2)cc1" .
Result block: false (0)

----------
Listed here are molecules together with their documented growth.
System: EKVX NSCLC
Experiment: NCI-60 one-dose screen, 48 h (100 = growth as untreated, 0 = no growth, -100 = all killed)
Details: 10 µM
This is part of a sample that, as a whole, favours compounds with a hit. Of some 83,000 tested, about 20% had one in any assay.
Unit % implied. Number only.

The following molecules have reported results that may help.
CN1C(=O)N(C)C2SC(N/N=C/C=C/c3ccccc3)=NC21 (stereo not given) | 86.6
O=C(c1ccc(Cl)cc1)C1[C@H](c2ccccc2Br)[C@@H](c2ccccc2)NC12C(=O)Nc1ccccc12 (stereo not given in full) | 14
CONC[C@]1(C)C=C2C(=O)[C@](C)(O)C3(CC3)C(C)=C2[C@H]1O | -45.3

Query block: Look at this molecule and give its reported growth. "Nc1cccnc1/C=N/NC(=S)NCCNC(=O)c1ccc(-n2nc(-c3ccccc3O)nc2-c2ccccc2O)cc1"
Result block: 2.53

Query block: Item under review: C=C1CCC2C3(C)COC(c4c(F)cccc4F)OC3CCC2(C)C1CC(O)C1=CCOC1=O (stereo not given) . Reported growth?
Result block: 85.7

Query block: Can you share its growth? I mean this molecule: "O=C(CSc1nnc(-c2c[nH]c3ccccc23)n1-c1ccccc1)c1ccccc1"
Result block: 68.4

Query block: Could you tell me which growth is on file for CN1C(=O)N(C)C2SC(N/N=C/c3ccc(F)cc3)=NC21 (stereo not given) ?
Result block: 77.2

Query block: Please report the recorded growth for "N#Cc1c(NC(=O)c2ccc(C(O)(C(F)(F)F)C(F)(F)F)cc2)sc2c1CCC(=O)C2" .
Result block: -89.6

Query block: Find the recorded growth belonging to NC1=NC(c2ccccc2Cl)N=C(Nc2nn[nH]n2)N1 (stereo not given) and report it.
Result block: 96.2

Query block: growth lookup needed for "OCCCNc1oc(-c2ccccc2)nc1[P+](c1ccccc1)(c1ccccc1)c1ccccc1" , thanks.
Result block: 14.3
